# TGT: recombinant TFPI of the FXa restoring assay (human, mouse or rat; species not stated for Tables 9 and 10)
# TEST DESCRIPTION: cell-based or functional assay
Known Improvement of IC50 vs 2A8wt of a selection of binders
Respond with the bare value in fold.

# count of solved cases: 2
BINDER: 2A8 HC S54F (Fab, V domains shown) VH: QVQLVESGGGLVQPGGSLRLSCAASGFTFRSYGMSWVRQAPGKGLEWVSSIRGFSSSTYYADSVKGRFTISRDNSKNTLYLQMNSLRAEDTAVYYCARKYRYWFDYWGQGTLVTVSS VL: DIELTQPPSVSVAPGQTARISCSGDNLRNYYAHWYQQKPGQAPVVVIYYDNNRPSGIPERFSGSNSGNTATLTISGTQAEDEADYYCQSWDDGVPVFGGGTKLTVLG
Improvement of IC50 vs 2A8wt (fold): 2

BINDER: 2A8 LC D91L (Fab, V domains shown) VH: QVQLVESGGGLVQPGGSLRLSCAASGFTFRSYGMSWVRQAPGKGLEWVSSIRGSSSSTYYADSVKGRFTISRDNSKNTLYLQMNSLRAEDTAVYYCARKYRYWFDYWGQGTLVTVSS VL: DIELTQPPSVSVAPGQTARISCSGDNLRNYYAHWYQQKPGQAPVVVIYYDNNRPSGIPERFSGSNSGNTATLTISGTQAEDEADYYCQSWLDGVPVFGGGTKLTVLG
Improvement of IC50 vs 2A8wt (fold): 1.7

# input binder: 2A8 LC Y48F (Fab, V domains shown) VH: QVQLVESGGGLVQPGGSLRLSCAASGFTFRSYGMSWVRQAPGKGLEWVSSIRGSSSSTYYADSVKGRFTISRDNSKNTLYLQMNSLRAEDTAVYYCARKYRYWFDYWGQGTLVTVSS VL: DIELTQPPSVSVAPGQTARISCSGDNLRNYYAHWYQQKPGQAPVVVIFYDNNRPSGIPERFSGSNSGNTATLTISGTQAEDEADYYCQSWDDGVPVFGGGTKLTVLG ; wanted: its Improvement of IC50 vs 2A8wt
1.9

# input binder: 2A8 HC K99L (Fab, V domains shown) VH: QVQLVESGGGLVQPGGSLRLSCAASGFTFRSYGMSWVRQAPGKGLEWVSSIRGSSSSTYYADSVKGRFTISRDNSKNTLYLQMNSLRAEDTAVYYCARLYRYWFDYWGQGTLVTVSS VL: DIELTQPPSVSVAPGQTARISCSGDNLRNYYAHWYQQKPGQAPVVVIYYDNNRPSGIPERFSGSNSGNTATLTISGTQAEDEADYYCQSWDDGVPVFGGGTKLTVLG ; wanted: its Improvement of IC50 vs 2A8wt
3.9
